Origin of the recorded values: ChEMBL document CHEMBL3880431

test.protocol: Lipophilicity, log P of the compound
Assay type: physicochemical
experimental.context: octanol/water; read-out: logP
We use 1 as the dividing line for logP: on or above the line is condition met, below is condition not met.

The examples below pair each entry with its known result.
[[record]]
molecule = "CCN1CCN(CCN)CC1"
qualitative_label = "condition not met"

[[record]]
molecule = "O=[N+]([O-])c1cccc(/C=N/Nc2ccc(S(=O)(=O)O)cc2)c1"
qualitative_label = "condition met"

[[record]]
molecule = "O=C1c2ccccc2-c2nc3n[nH]nc3nc21"
qualitative_label = "condition met"

[[record]]
molecule = "Cn1c(=N)n(CC(=O)O)c2ccccc21"
qualitative_label = "condition met"

[[record]]
molecule = "NC(=O)NNC1CC(=O)N(c2ccc(F)cc2)C1=O (stereo not drawn)"
qualitative_label = "condition not met"


# input for lookup
Is logP for NC(=O)C1=NC(c2cccnc2)=NC1=O at or above 1?
condition not met
